Values compiled from PubChem BioAssay.

test: blockers of DNA damage checkpoint Chk1 activation – imaging, HeLa, hydroxyurea, phospho-Chk1 antibody, percent positive cells, primary screen (AID 1186); details: hydroxyurea-induced phospho-Chk1 immunofluorescence imaging, higher = more signal
Could you label it t if measured z-score is -0.2 or higher, and f otherwise?

| compound | class-label |
| --- | --- |
| CN1C2C=C(CCCO)C(C3C(=O)N(C(N)=O)C(=O)C32)C1C1CC1 (stereo not given) | f |
| COC(=O)c1c(CC[C@@H](CO)NC(=O)N2CCC[C@H]2Cn2cc(C3(O)CCCCC3)nn2)oc(C(C)=O)c1C(=O)OC | t |
| CCCC[C@@H](O)C1=C(COC)C[C@H]2C(=O)N(Cc3ccccc3)C(=O)[C@H]2[C@H]1CO | t |
| C=C(/C(=C/C[C@H](OC(=O)c1ccncc1)c1ccc(CO)o1)c1cnc2ccccc2c1)C(C)C | f |

Task: Could you please find out whether `CCCCC=C[C@@H](NC(=O)OCc1ccccc1Cl)c1ccccc1` has z-score that meets -0.2 or exceeds it?
Result: t

----------
Quick list: composite z-score per entry.
test system: Human papillomavirus type 1a protein E7 (residues 44-93); assay: small molecules binding HPV E7 44-93 – biochemical, small-molecule microarray, residues 44-93, 635 nm fluorescence, primary screen (AID 1108); details: fluorescence 635 nm, higher = more signal;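 further: E7 fragment applied at 1 µg/mL in TBST for 1 h at 4 C; score combines spot fluorescence with its signal to noise ratio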
Give a plain numeric answer without units written out.

Worked examples, 5 molecules total:
| molecule | composite z-score |
| --- | --- |
| O=C1C[C@]2(c3ccc([N+](=O)[O-])cc3)C(=O)N(C3CC3)c3cc(CO)ccc3[C@H]2N1CC12CC3CC(CC(C3)C1)C2 | 0.471 |
| CC(C)[Si]1(C(C)C)OCc2cc(-c3ccc(-c4ccc(Cl)c(Cl)c4)o3)nc(-c3ccccc3)c21 | -0.922 |
| CCC#CCN(Cc1ccccc1Br)[C@H](/C=C/C1CC1)[C@@H](O)Cc1ccccc1 | -1.04 |
| CCCCC(CC)C(O)C1C=CC2C(=O)N(c3ccccc3)C(=O)C2N1Nc1ccc(C#N)cc1 (stereo unspecified) | 1.44 |
| [N-]=[N+]=Nc1ccccc1C[C@@]1(C(=O)NCCN2CCOCC2)N=C(c2ccc(OCCCO)cc2)O[C@@H]1c1ccccc1N=[N+]=[N-] | -0.241 |

composite z-score measured on N#Cc1ccc(NN2C(C(O)c3ccc(Br)cc3)C=CC3C(=O)N(c4ccccc4)C(=O)C32)cc1 (stereo unspecified) = -1.46

----------
assay: JC-1 mitochondrial potential readout, lung cancer cells – cell-based, A549, JC-1 fluorescence, basal, 24 h, 100 nL, profiling panel (AID 1138); details: higher = more signal;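 further: A549 lung adenocarcinoma cells under basal conditions with no added stimulus; test concentration not given here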
Quick list: z-score per entry.

| compound | reported-measurement |
| --- | --- |
| C[C@@H]1NC(=O)[C@@H](Cc2ccccc2)NC(=O)[C@@]23C(=O)N[C@@H](Cc4ccccc4)C2[C@H](C)[C@@]2(C)O[C@H]2C3/C=C/C/C=C\CNC1=O (some centres undefined) | -0.0637 |
| CCCC[C@@H]1C[C@H]1[C@@H](NC(=O)c1cccs1)c1ccccc1C(F)(F)F | 0.245 |
| CCCCNC(=O)c1ccc(C#CC(C)(C)C)c(OC(C)=O)c1 | -0.895 |
| C=CC[C@@H](OC(=O)Nc1ccc(OC)cc1)c1ccc(O)c(F)c1 | -1.71 |
| C=C(/C(=C/C[C@H](OC(C)=O)c1ccc(CO)o1)c1cnc2ccccc2c1)C(C)C | -0.874 |
| CCOC(=O)C1=C[C@@H](C(C)(C)C)N(S(=O)(=O)c2ccc(C)cc2)[C@H]1c1cccc2ccccc12 | 2.89 |

z-score measured on `COCCCNC(=O)[C@@H]1c2ccccc2C(=O)N(C(C)C)[C@H]1c1ccc(CO)cc1` = 0.448

z-score measured on CCC1=C2CN(Cc3ccccc3)[C@@H](C(=O)Cc3ccccc3)C2C=CCC1 (some centres undefined) = -1.22

z-score measured on `CCCC=C(CCC)[C@@H](NP(=O)(c1ccccc1)c1ccccc1)c1ccc(-c2ccccc2)cc1` = -2.3

----------
assay: growth effects on S. cerevisiae YJM789 – YJM789 clinical isolate, OD600, 24 h, basal, primary screen (AID 1089); conditions: higher = more signal, called active from +8 up or from −8 down;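 further: growth of clinical yeast isolate S. cerevisiae YJM 789 seeded 1000 cells per well; test concentration not given here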
Could you label it class 1 if measured z-score is 0.2 or higher, and class 0 otherwise?

Check out these entries, answers already filled in.
| compound | class-label |
| --- | --- |
| COCCOC(=O)N1C(=O)[C@@]2(c3cc(C#CC4=CCCCC4)ccc31)[C@H](c1ccccc1OCCO)N1[C@H](c3ccccc3)[C@H](c3ccccc3)OC(=O)[C@H]1[C@@H]2C(=O)N1CCN(c2ncccn2)CC1 | class 1 |
| COC(=O)[C@@]1(Cc2ccccc2)[C@H]2c3cc(C(=O)N(C)C)n(Cc4ccc(C)o4)c3C[C@H]2CN1C(=O)c1ccccc1 | class 1 |

Task: Could you please find out whether CC(C)C(O)C1C=CC2C(=O)N(c3ccccc3)C(=O)C2N1Nc1ccccc1 (stereo not drawn) has z-score that meets 0.2 or exceeds it?
Result: class 0

Task: Could you please find out whether `CCOC(=O)C1=C[C@@H](C(C)C)N(S(=O)(=O)c2ccc(C)cc2)[C@H]1c1ccc(C(F)(F)F)cc1` has z-score that meets 0.2 or exceeds it?
Result: class 1

Task: Could you please find out whether `COCCCNC(=O)[C@@]1(CCC(=O)OC(C)(C)C)N=C(c2ccc(OCCCO)cc2)O[C@H]1c1ccccc1N=[N+]=[N-]` has z-score that meets 0.2 or exceeds it?
Result: class 0

Task: Could you please find out whether `CC(C)[Si]1(C(C)C)OCc2cc(C3CC3)nc(-c3ccc(Oc4ccccc4)cc3)c21` has z-score that meets 0.2 or exceeds it?
Result: class 1

Task: Could you please find out whether `C=C[C@@H](OC)[C@H](OC(=O)Nc1ccc(OC)cc1)c1ccc(O)c(F)c1` has z-score that meets 0.2 or exceeds it?
Result: class 0

Task: Could you please find out whether `CC[C@@H]1C=C(C(=O)O)[C@H](c2ccc(C#N)cc2)N1S(=O)(=O)c1ccc(C)cc1` has z-score that meets 0.2 or exceeds it?
Result: class 0

----------
Quick list: composite z-score per entry.
system: PRMT1 (protein arginine N-methyltransferase 1); assay: small molecules binding arginine methyltransferase PRMT1 – biochemical, small-molecule microarray, 635 nm fluorescence, primary screen (AID 1088); details: higher = more signal;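 further: binding of Prmt1 protein to compounds spotted on small-molecule microarray slides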
Give a plain numeric answer without units written out.

| compound | reported-measurement |
| --- | --- |
| COC(=O)C1=CC(CCCO)=CC(c2ccc(CN3CCCC3)cc2)N(Cc2cccc(OC(F)(F)F)c2)C=C1C(=O)OC (stereo not drawn) | 1.44 |
| O=C1O[C@@H](c2ccccc2)[C@@H](c2ccccc2)N2[C@@H](c3ccc(OCCO)cc3)[C@]3(C(=O)Nc4ccc(C#CC5=CCCCC5)cc43)[C@@H](C(=O)NC[C@H](O)c3ccccc3)[C@H]12 | 1.36 |

Value sought: composite z-score, system PRMT1 (protein arginine N-methyltransferase 1), item C=CCC(OC(C)=O)[C@@H]1[C@@H](N(Cc2ccc(-c3ccccc3)cc2)C(=O)c2ccc(-c3ccccc3)cc2)c2cc(OCCCO)ccc2N1C(=O)c1ccc2ccccc2c1 (stereo partly drawn) . Result: 0.636

----------
assay: inhibition of PAO1 biofilm formation – strain PAO1, LB-PBS medium, absorbance 600 nm, primary screen (AID 1176); further: test concentration not given here; conditions: P. aeruginosa PAO1 growth/biofilm, A600, 12 h; higher = more signal
Could you label it t if measured z-score is 1 or higher, and f otherwise?

Task: Could you please find out whether `[N-]=[N+]=Nc1ccccc1C[C@]1(C(=O)N2CCOCC2)COC(c2ccc(OCCCO)cc2)=N1` has z-score that meets 1 or exceeds it?
Result: f

----------
Quick list: composite z-score per entry.
molecular target: Alpha-bungarotoxin (Bungarus multicinctus); experiment: compounds binding labelled alpha-BTX control protein – biochemical, small-molecule microarray, Alexa647 label, 635/667 nm fluorescence, artefact control for SMM control protein annotation, profiling panel (AID 1117); conditions: alpha-BTX-A647 binding fluorescence, higher = more signal
Give a plain numeric answer without units written out.

Worked examples, 3 compounds total:
| compound | subject-of-test | composite z-score |
| --- | --- | --- |
| CC(C)N1C(=O)C[C@@](C(=O)O)(c2ccc([N+](=O)[O-])cc2)[C@H]1c1ccc(CO)cc1 | Alpha-bungarotoxin (Bungarus multicinctus) | -0.315 |
| CC(=O)N1CC2(CC2)CC1c1ccccc1 (centres undefined) | Alpha-bungarotoxin (Bungarus multicinctus) | -0.217 |
| [N-]=[N+]=Nc1ccccc1C[C@]1(C(=O)NCCN2CCOCC2)COC(c2ccc(OCCCO)cc2)=N1 | Alpha-bungarotoxin (Bungarus multicinctus) | 0.536 |

Let us move to another entry and its composite z-score.
composite z-score measured on `COC(=O)[C@@]1(Cc2ccc(F)cc2)[C@H]2c3cc(C(=O)N4CCCC4)n(CCc4c[nH]c5ccccc45)c3C[C@H]2CN1C(=O)c1ccccc1` = 1.89
